# experimental_system: UniProtKB Q00975
# Sequence (Q00975 whole entry): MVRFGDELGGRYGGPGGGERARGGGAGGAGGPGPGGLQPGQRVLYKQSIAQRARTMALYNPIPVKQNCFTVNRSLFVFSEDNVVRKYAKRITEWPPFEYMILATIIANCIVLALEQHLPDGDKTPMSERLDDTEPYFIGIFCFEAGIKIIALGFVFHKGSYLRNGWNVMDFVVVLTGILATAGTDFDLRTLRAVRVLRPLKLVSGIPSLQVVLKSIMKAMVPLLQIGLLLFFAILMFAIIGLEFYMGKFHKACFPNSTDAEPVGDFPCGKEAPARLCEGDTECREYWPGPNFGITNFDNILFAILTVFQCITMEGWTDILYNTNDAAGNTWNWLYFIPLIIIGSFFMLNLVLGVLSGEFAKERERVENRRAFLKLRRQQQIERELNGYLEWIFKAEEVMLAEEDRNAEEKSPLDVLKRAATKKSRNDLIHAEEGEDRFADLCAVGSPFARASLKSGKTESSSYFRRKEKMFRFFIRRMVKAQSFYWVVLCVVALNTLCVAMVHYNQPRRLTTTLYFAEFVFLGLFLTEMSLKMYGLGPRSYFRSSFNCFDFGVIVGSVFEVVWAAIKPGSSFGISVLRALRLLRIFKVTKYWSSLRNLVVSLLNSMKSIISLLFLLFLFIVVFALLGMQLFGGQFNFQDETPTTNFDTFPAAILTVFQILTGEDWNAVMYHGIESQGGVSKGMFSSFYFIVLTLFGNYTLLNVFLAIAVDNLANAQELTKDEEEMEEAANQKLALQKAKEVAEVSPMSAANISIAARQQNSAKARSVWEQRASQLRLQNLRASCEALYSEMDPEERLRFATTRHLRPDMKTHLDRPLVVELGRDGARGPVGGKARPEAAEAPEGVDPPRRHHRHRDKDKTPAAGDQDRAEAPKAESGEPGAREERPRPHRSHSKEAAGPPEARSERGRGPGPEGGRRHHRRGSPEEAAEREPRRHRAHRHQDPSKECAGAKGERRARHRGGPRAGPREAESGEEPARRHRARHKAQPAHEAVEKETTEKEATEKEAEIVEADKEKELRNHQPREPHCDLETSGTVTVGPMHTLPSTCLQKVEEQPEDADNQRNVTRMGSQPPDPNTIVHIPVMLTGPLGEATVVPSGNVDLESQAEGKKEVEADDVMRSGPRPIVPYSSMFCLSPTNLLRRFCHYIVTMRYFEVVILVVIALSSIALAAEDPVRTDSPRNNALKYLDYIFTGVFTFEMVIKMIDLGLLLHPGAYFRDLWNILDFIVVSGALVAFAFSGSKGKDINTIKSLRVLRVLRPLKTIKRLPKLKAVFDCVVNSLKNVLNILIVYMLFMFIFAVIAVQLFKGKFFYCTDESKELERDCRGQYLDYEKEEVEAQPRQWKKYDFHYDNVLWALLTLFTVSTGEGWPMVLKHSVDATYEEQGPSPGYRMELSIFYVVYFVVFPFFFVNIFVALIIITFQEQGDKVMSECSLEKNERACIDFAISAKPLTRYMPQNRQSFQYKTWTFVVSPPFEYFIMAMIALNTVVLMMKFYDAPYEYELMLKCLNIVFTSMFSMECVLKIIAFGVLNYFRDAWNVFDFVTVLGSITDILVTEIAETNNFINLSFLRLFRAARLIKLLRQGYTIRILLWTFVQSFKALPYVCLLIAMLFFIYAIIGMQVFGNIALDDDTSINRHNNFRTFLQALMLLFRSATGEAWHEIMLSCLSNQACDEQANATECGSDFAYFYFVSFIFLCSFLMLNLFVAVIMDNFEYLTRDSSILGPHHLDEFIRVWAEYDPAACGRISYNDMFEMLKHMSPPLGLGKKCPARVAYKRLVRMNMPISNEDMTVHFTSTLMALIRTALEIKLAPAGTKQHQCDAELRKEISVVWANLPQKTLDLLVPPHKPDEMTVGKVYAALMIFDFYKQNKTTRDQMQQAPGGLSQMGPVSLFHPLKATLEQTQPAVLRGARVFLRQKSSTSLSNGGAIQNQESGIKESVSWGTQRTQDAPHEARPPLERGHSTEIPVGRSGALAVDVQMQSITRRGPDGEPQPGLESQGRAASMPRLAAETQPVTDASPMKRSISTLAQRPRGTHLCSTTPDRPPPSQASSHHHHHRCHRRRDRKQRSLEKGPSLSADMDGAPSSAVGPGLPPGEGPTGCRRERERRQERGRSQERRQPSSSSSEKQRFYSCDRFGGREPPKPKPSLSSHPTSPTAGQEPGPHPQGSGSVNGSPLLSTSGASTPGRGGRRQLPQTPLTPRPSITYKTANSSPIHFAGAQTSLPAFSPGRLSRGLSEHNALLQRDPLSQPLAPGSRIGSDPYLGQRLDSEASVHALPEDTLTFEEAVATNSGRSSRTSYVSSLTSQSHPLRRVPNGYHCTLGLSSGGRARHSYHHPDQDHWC
# Sequence (P54284 whole entry partner): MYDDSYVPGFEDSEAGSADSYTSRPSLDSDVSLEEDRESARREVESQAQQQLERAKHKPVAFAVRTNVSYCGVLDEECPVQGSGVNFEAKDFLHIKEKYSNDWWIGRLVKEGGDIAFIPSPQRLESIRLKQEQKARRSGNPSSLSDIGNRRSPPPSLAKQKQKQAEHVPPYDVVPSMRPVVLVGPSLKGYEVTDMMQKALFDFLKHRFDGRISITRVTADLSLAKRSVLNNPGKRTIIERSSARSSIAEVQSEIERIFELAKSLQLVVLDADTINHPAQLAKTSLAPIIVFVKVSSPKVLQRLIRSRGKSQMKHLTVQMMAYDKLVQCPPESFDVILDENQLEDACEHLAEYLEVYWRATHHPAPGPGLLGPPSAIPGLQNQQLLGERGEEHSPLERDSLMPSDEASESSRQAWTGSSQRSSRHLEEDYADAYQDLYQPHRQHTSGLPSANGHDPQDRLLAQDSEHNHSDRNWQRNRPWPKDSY
# Sequence (P54289 25-956 partner limits assumed): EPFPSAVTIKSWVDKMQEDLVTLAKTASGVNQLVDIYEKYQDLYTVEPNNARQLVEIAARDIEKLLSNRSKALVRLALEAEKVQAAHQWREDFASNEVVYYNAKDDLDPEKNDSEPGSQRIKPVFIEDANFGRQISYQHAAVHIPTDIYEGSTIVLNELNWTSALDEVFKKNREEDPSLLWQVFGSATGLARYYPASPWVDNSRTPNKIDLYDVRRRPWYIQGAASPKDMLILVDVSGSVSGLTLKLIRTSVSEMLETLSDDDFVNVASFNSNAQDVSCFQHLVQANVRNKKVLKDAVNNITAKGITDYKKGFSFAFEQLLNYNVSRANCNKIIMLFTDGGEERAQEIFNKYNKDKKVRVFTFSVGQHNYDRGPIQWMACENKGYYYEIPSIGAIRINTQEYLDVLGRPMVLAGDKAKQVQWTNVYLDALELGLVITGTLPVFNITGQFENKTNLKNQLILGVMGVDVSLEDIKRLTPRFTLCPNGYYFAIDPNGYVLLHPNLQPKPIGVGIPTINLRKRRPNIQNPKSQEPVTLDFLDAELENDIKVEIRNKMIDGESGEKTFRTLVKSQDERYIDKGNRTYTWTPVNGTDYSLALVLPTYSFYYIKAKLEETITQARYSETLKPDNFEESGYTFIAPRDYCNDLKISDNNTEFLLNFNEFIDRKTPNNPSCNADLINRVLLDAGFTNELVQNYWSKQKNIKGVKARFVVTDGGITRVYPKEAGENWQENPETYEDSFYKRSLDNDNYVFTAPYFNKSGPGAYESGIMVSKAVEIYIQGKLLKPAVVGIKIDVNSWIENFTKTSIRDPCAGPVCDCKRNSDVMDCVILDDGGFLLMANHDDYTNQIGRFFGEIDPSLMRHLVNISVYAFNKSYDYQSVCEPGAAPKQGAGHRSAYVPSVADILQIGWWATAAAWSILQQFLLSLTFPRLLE
# Sequence (P54289 957-1103 partner limits assumed): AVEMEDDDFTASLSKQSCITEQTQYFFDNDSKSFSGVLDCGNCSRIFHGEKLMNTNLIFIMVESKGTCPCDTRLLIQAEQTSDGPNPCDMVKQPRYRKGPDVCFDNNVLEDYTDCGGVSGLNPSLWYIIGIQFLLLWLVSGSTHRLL
# measurement_notes: VIPR optical membrane potential assay with electrical stimulation, CaV2.2
# condition_label: Table 9, CaV 2.2 receptors
pIC50: −log10 of the molar value.
measured_attribute: pIC50

Example entries begin here.
## Task Please respond with reported pIC50 (system UniProtKB Q00975) for CC(C)N(Cc1ccccc1)C(=O)c1cnc(Nc2ccc(Cl)cc2)nc1-c1ccccc1F [compound 207] .
## Result < 5.00

## Task Fill: pIC50 (UniProtKB Q00975) for this molecule CC1CCN(C(=O)c2cnc(NCc3ccccc3C(F)(F)F)nc2-c2ccc(C#N)cc2)CC1 [compound 221]
## Result < 5.00

## Task Fill in: pIC50 on UniProtKB Q00975, entry CCC(C)NC(=O)c1cnc(N(C)CCc2ccc(OC)c(OC)c2)nc1-c1ccc(C#N)cc1 (centres unmarked) [compound 331]
## Result < 5.00

## Task Enter recorded pIC50 with UniProtKB Q00975 for CC(C)CN(CC(C)C)C(=O)c1cnc(N2CCCC2)nc1-c1ccc(C#N)cc1 [compound 341] here.
## Result < 5.00

## Task // fetch pIC50 for CC(C)N(C(=O)c1cnc(N2CCCCC2)nc1-c1ccccc1F)c1ccccc1 [compound 93] ; system: UniProtKB Q00975
## Result 5.00 to 5.70

## Task Would you please give the reported pIC50 of O=C(c1cnc(N2CCSCC2)nc1-c1ccccc1F)N(Cc1ccccc1)C1CCC1 [compound 80] with UniProtKB Q00975?
## Result 5.00 to 5.70

## Task Give pIC50; test system UniProtKB Q00975; molecule COCCNc1ncc(C(=O)N2CCOCC2)c(-c2cccc(C)c2)n1 [compound 321]
## Result < 5.00

New cases:
## Task Report value only: pIC50, UniProtKB Q00975, CC(C)N(Cc1ccccc1)C(=O)c1cnc(Nc2nc3ccccc3[nH]2)nc1-c1ccccc1F [compound 106]
## Result < 5.00

====

# experimental_system: NaV1.8 (Homo sapiens)
# measurement_notes: VIPR optical membrane potential assay, NaV1.8 (other subtypes in an analogous mode)
# Assay type: cell-based
# condition_label: Table 9, NaV 1.8 receptors
Readings of IC50 for the listed molecules

Recorded results for 10 molecules are shown here.
## Task Check the records and state IC50 for COc1cccc(N(C(=O)c2cnc(N3CCCCC3)nc2-c2ccccc2Cl)C2CCCC2)c1
## Result > 10 µM

## Task Provide only the value of recorded IC50 for O=C(c1cnc(N2CCSCC2)nc1-c1ccccc1F)N(Cc1ccccc1)C1CCC1
## Result > 10 µM

## Task Answer with the recorded IC50 of COc1cccc(CN(C(=O)c2cnc(N3CCOCC3)nc2-c2ccccc2F)C2CC2)c1 only.
## Result > 10 µM

## Task Indicate the recorded IC50 value for this molecule: CC1COc2ccccc2N1C(=O)c1cnc(N2CCOCC2)nc1-c1ccccc1F (stereo not drawn)
## Result > 10 µM

## Task Answer with the recorded IC50 for the molecule listed here: CC(C)N(C(=O)c1cnc(N2CCCCC2)nc1-c1ccccc1Cl)C1CCSC1 (stereo not drawn)
## Result > 10 µM

## Task Write down IC50 measured for item CN1CCN(c2ncc(C(=O)N(Cc3ccc(C(C)(C)C)cc3)C3CC3)c(-c3ccccc3F)n2)CC1
## Result > 10 µM

## Task Tell us which IC50 value is on record for COc1cccc(N(C(=O)c2cnc(N3CCOCC3)nc2-c2ccccc2F)C(C)C)c1
## Result > 10 µM

## Task Let me know recorded IC50 for COc1cccc(N(C(=O)c2cnc(N3CCSCC3)nc2-c2ccccc2F)C(C)C)c1 , thanks.
## Result > 10 µM

## Task For CC(C)N(Cc1ccccc1)C(=O)c1cnc(N2CCC3CCCCC3C2)nc1-c1ccccc1F (stereo not drawn) , write its IC50.
## Result > 10 µM

## Task Report IC50 for COc1cccc(N(C(=O)c2cnc(N3CCCCC3)nc2-c2ccccc2Cl)C2CCC2)c1
## Result > 10 µM

***
## Task Look up and report measured IC50 for this entry: COc1cccc(CN(C(=O)c2cnc(N3CCCCC3)nc2-c2ccccc2Cl)C(C)C)c1
## Result 2 to 10 µM

## Task Name the recorded IC50 of the item COc1cccc(CN(C(=O)c2cnc(N3CCCCC3)nc2-c2ccccc2F)C(C)C)c1 in your answer.
## Result 2 to 10 µM

## Task Identify IC50 associated with the molecule O=C(c1cnc(N2CCCCC2)nc1-c1ccccc1Cl)N(Cc1ccc2c(c1)CCO2)C1CC1
## Result > 10 µM

## Task Please indicate IC50 recorded for O=C(NC1CC1)c1cnc(N2CCOCC2)nc1-c1ccccc1F
## Result > 10 µM

## Task // Input: CC(C)N(Cc1ccccc1)C(=O)c1cnc(N2CCCCC2)nc1-c1ccccc1F . Output its IC50 only.
## Result 2 to 10 µM

## Task Determine from records and report IC50 for COc1ccc(CN(C(=O)c2cnc(N3CCC4CCCCC4C3)nc2-c2ccccc2F)C2CC2)cc1 (stereo not drawn)
## Result > 10 µM

## Task Query IC50 for O=C(c1cnc(N2CCSCC2)nc1-c1ccccc1F)N(Cc1ccccc1)C1CCCCC1
## Result > 10 µM

## Task Dear colleague, please send me the reported IC50 for O=C(c1cnc(N2CCOCC2)nc1-c1ccccc1F)N(Cc1ccc(C(F)(F)F)cc1)C1CC1 when you can.
## Result > 10 µM
